assay.notes: acute toxicity (single oral administration)
measurement.conditions: mouse, in vivo, po; read-out: Toxicity LD 50
LD50 overview

# compound, LD50
data = [
    ("C=C(C)C(=O)CC/C(C)=C/CC/C(C)=C/C=O [G]", "1000 to 2000 mg/kg"),
    ("C=C(C)C(=O)CC/C(C)=C/CC/C(C)=C/CO [F]", "625 to 1250 mg/kg"),
    ("C#CC(CC/C(C)=C/CC/C(C)=C/CO)=NOC (mixture of isomers) [U]", "1000 to 2000 mg/kg"),
    ("C=C(C)C(O)CC/C(C)=C/CC/C(C)=C/C(=O)O (stereo not drawn) [O]", "1250 to 2500 mg/kg"),
    ("C=C(C)C(O)CC/C(C)=C/CC/C(C)=C/CO (stereo not drawn) [N]", "> 2000 mg/kg"),
    ("C/C=C/C(=O)CC/C(C)=C/CC/C(C)=C/CO [D]", "1000 to 2000 mg/kg"),
]

// field: LD50; key: C=C(C)C(CC/C(C)=C/CC/C(C)=C/CO)(OC)OC [Q] ; value = > 5000 mg/kg

// field: LD50; key: C=C(C)C(O)CC/C(C)=C/CC/C(C)=C/C=O (stereo not drawn) [R] ; value = > 5000 mg/kg

// field: LD50; key: C=C(C)C(=O)CC/C(C)=C/CC/C(C)=C/C(=O)O [P] ; value = 1250 to 2500 mg/kg

// field: LD50; key: C=C(C)C1(CC/C(C)=C/CC/C(C)=C/CO)OCCO1 [I] ; value = > 4000 mg/kg

// field: LD50; key: C#CC(=O)CC/C(C)=C/CC/C(C)=C/CO [A] ; value = 1000 to 2000 mg/kg

// field: LD50; key: CC#CC(=O)CC/C(C)=C/CC/C(C)=C/CO [C] ; value = 1000 to 2000 mg/kg

Hey, just so you know, these numbers are from patent US4827004A.
